Origin of the recorded values: the RNAGym collection of RNA variant scans (doi:10.1073/pnas.2313332121)

Quick reference for polymerase ribozyme fitness (log ratio) among some variants
B1: TPR 5TU (parent)
chain: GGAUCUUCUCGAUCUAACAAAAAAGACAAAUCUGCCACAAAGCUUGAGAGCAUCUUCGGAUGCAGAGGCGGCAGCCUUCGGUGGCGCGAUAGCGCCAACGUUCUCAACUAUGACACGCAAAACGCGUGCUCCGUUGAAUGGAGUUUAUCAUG

# Variants of: B1
# Test description: polymerase ribozyme fitness, log enrichment relative to wild type (log ratio); higher = more active; in vitro selection for triplet polymerase activity
Variants at the floor of the assay were thinned out.
In your answer, state the number alone without any accompanying words.

Worked examples follow.
{"Mutant id": "U4A G50A U82G U134C", "polymerase ribozyme fitness (log ratio)": -2.39}
{"Mutant id": "C63U C95U", "polymerase ribozyme fitness (log ratio)": -0.692}

Here is another variant to look at.
Input: Give me measured polymerase ribozyme fitness (log ratio), please, for this variant: C76A G84A U134G
Output: -2.67
